B1: TRIM63 (parent)
chain: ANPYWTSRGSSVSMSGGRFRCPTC

# Variants of: B1
# assay_text: protein stability index of a GFP-peptide fusion (GPS, HEK-293T) (PSI 1-6); higher = more stable;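 note: lentivirally expressed fusions sorted by FACS into six bins by GFP to DsRed ratio, PSI derived from sequencing read proportions per bin multiplied by bin number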
# experimental_conditions: c terminus: a fixed tail appended
protein stability index below 2 gives n; protein stability index at or above it gives y.

[[record]]
polymer_sequence = "ANQYWTSRGSSVSMSGGRFRCPTC [P3Q]"
label_value = "y"

[[record]]
polymer_sequence = "ANPYWTSRGSSVSKSGGRFRCPTC [M14K]"
label_value = "n"

[[record]]
polymer_sequence = "ANPYWTSRGSSDSMSGGRFRCPTC [V12D]"
label_value = "n"

[[record]]
polymer_sequence = "ANPYHTSRGSSVSMSGGRFRCPTC [W5H]"
label_value = "y"

[[record]]
polymer_sequence = "ANPYWTSRGSSFSMSGGRFRCPTC [V12F]"
label_value = "n"

[[record]]
polymer_sequence = "ANPYWTSRGSSVSMSGGRFRCPFC [T23F]"
label_value = "n"

[[record]]
polymer_sequence = "ANPYWTSRGSSVSMSAGRFRCPTC [G16A]"
label_value = "n"

[[record]]
polymer_sequence = "ANGYWTSRGSSVSMSGGRFRCPTC [P3G]"
label_value = "n"

[[record]]
polymer_sequence = "DNPYWTSRGSSVSMSGGRFRCPTC [A1D]"
label_value = "n"

[[record]]
polymer_sequence = "ANYYWTSRGSSVSMSGGRFRCPTC [P3Y]"
label_value = "y"


Here is another variant to look at.
Does the reported protein stability index for ANPYWWSRGSSVSMSGGRFRCPTC [T6W] fall at or above the 2 mark?
n
